All figures here come from patent US20250296909A1.

Each entry below lists one item and its recorded inhibition at 50 µM value.
# Tested on: spleen T cells
# procedureSummary: T cell proliferation inhibition (CFSE, FACS), CD3/CD28-activated spleen T cells
# Format: cell-based, C57BL/6 mice
# testSettings: Mus musculus, T-cell, 72 h; Table 2; 50 μM; 3 days; relative to CD3/CD28+DMSO; read-out: Proliferation inhibition rate (%)
property: inhibition at 50 µM (%)

CCCCCCCCCCCCNC(=O)c1ccncc1Cl: 99
CCCCCCCCCCCCNC(=O)c1ccccc1C(=O)c1ccc(Cl)cc1: 100
CCCCCCCCCCCCNC(=O)c1ccccc1C(=O)NC1CCCCC1: 85
CCCCCCCCCCCCNC(=O)c1ncccc1Cl: 99
CCCCCCCCCCCCNC(=O)c1cc(Cl)cc(Cl)c1O: 91

* * *

# Test system: spleen T cells
# procedureSummary: T cell proliferation inhibition (CFSE, FACS), CD3/CD28-activated spleen T cells
# Assay type: cell-based, C57BL/6 mice
# testSettings: Mus musculus, T-cell; Table 3 (compounds not belonging to Formula 1); 10 μM; read-out: Proliferation inhibition rate (%)
property: inhibition at 10 µM (%)

Cc1ccccc1NC(=O)c1ccccc1F: 9
CCCCCCCCCNC(=O)/C=C/c1ccccc1Br: 5
O=C(NCCCc1ccccc1)c1ccccc1Br: 23
O=C(Nc1ccccc1Br)c1ccccc1Br: 0
Cc1ccccc1NC(=O)c1ccccc1Br: 11
CCCCNC(=O)c1ccccc1F: 0
O=C(Nc1ccccc1)c1ccncc1Br: 9

* * *

# System: T lymphocyte cell line Jurkat E6-1
# procedureSummary: Cytotoxicity experiment (CCK-8, relative cell survival)
# Type: cell-based
# testSettings: 30 μM; 24 hours; untreated cells = 100%
# Protocol: To evaluate the cytotoxicity of the compound according to the present invention, the following experiment was conducted. The T lymphocyte cell line Jurkat E6-1, purchased from the Korean Cell Line Bank, was cultured in RPMI-1640 medium comprising 10% FBS, 100 U/mL penicillin, and 100 μg/mL streptomycin. […] Absorbance was then measured at 450 nm to determine the relative cell survival rate compared to untreated cells, as shown in Table 4. […]
Each entry below lists one item and its recorded Relative cell survival rate (%) value.
property: Relative cell survival rate (%)

CCCCCCCCCCCCNC(=O)c1ccccc1C(=O)NC1CCCCC1: 98
CCCCCCCCCCCCNS(=O)(=O)c1ccccc1[N+](=O)[O-]: 97
CCCCCCCCCCCCNC(=O)c1cnccc1N: 92
CCCCCCCCCCCCNC(=O)c1cc2ccccc2cc1N: 62
CCCCCCCCCCCCNC(=O)c1ccccc1NC: 86
CCCCCCCCCCCCNC(=O)c1cccnc1SC: 61
CCCCCCCCCCCCNC(=O)c1ccccc1-n1cccc1: 96
CCCCCCCCCCCCNC(=O)c1ccncc1Cl: 83
CC(C)=CCC/C(C)=C/CNC(=O)c1cccnc1N: 86
CCCCCCCCCCCCNC(=O)c1c(Cl)ccnc1Cl: 108

* * *

# Test system: spleen T cells
# procedureSummary: T cell proliferation inhibition (CFSE, FACS), CD3/CD28-activated spleen T cells
# Type: cell-based, C57BL/6 mice
# testSettings: Mus musculus, T-cell, 72 h; Table 2; 50 μM; 3 days; relative to CD3/CD28+DMSO; read-out: Proliferation inhibition rate (%)
Each entry below lists one item and its recorded inhibition at 50 µM value.
property: inhibition at 50 µM (%)

CCCCCCCCCNC(=O)/C=C/c1ccccc1Br [Compound 10]: 92
O=C(NCCCCCCCCCCCCO)c1ccccc1Br [Compound 83]: 100
CCCCCCCCCCCCNC(=O)c1cccnc1Nc1cccc(C(F)(F)F)c1 [Compound 33]: 100
CC(C)=CCC/C(C)=C/CNC(=O)c1cccnc1N [Compound 75]: 98
CCCCCCCCCCCCNC(=O)c1ccc(Cl)cc1Cl [Compound 60]: 98
CCCCCCCCCCCCNC(=O)c1ccccc1-c1ccc(C)cc1 [Compound 27]: 100
CCCCCCCCCCCCNC(=O)c1cccnc1 [Compound 19]: 100
CCCCCCCCCCCCNC(=O)c1cccnc1O [Compound 70]: 98
CCCCCCCCCCCCNC(=O)c1c(Cl)ccnc1Cl [Compound 30]: 55
CCCCCCCCCCCCNC(=O)c1cccnc1N [Compound 69]: 100

* * *

Each entry below lists one item and its recorded Relative cell survival rate (%) value.
# System: T lymphocyte cell line Jurkat E6-1
# procedureSummary: Cytotoxicity experiment (CCK-8, relative cell survival)
# Format: cell-based
# testSettings: 10 μM; 24 hours; untreated cells = 100%
property: Relative cell survival rate (%)

CCCCCCCCCCCC(=O)Nc1ccccc1Br: 110
CCCCCCCCCCCCNC(=O)c1ncccc1Br: 94
CCCCCCCCCCCCNC(=O)c1cccnc1C(F)(F)F: 116
CCCCCCCCCCCCNS(=O)(=O)c1ccccc1Br: 97
CCCCCCCCCCCCNS(=O)(=O)c1c(Cl)cccc1Cl: 105
CCCCCCCCCCCCNC(=O)c1ncc(F)cc1F: 112
CCCCCCCCCCCCNC(=O)c1c(Cl)cccc1Cl: 89
CCCCCCCCCCCCNC(=O)c1cccnc1SC: 71
CCCCCCCCCNC(=O)/C=C/c1ccccc1Br: 91
CCCCCCCCCCCCNC(=O)c1ccccc1-n1cccc1: 96
CCCCCCCCCCCCNS(=O)(=O)c1ccccc1[N+](=O)[O-]: 100
CCCCCCCCCCCCNC(=O)c1cccc2ccccc12: 102
CCCCCC(=O)Nc1ccccc1CNC(=O)c1ccccc1Br: 100
CCCCCCCCCCCCNC(=O)c1cnccc1N: 101
CCCCCCCCCCCCNC(=O)c1cccnc1: 94
CCCCCCCCCCCCNC(=O)c1cccnc1Br: 115
CCCCCCCCCCCCNC(=O)c1cccnc1O: 119
CCCCCCCCCCCCNC(=O)c1ccc2cccc(O)c2n1: 101
CCCCCCCCCCCCNC(=O)c1cccnc1Cl: 95
CCCCCCCCCCCCNC(=O)c1cc2ccccc2cc1N: 66
CCCCCCCCCCCCNC(=O)c1cccnn1: 111
CCCCCCCCCCCCNC(=O)c1ccncc1N: 92

* * *

# System: spleen T cells
# procedureSummary: T cell proliferation inhibition (CFSE, FACS), CD3/CD28-activated spleen T cells
# Assay type: cell-based, C57BL/6 mice
# testSettings: Mus musculus, T-cell, 72 h; Table 2; 10 μM; 3 days; relative to CD3/CD28+DMSO; read-out: Proliferation inhibition rate (%)
Each entry below lists one item and its recorded inhibition at 10 µM value.
property: inhibition at 10 µM (%)

CCCCCCCCCCCCNS(=O)(=O)c1cnccc1O [Compound 72]: 68
CCCCCCCCNC(=O)c1cccnc1N [Compound 74]: 66
CCCCCCCCCCCCNC(=O)c1ncccc1Br [Compound 73]: 32
CCCCCCCCCCCCNC(=O)c1ccccc1C(=O)c1ccc(Cl)cc1 [Compound 16]: 0
CCCCCCCCCCCCNC(=O)c1ccncc1Cl [Compound 12]: 5
CCCCCCCCCCCCNC(=O)c1ncccc1N [Compound 67]: 35

* * *

# System: T lymphocyte cell line Jurkat E6-1
# procedureSummary: Cytotoxicity experiment (CCK-8, relative cell survival)
# Type: cell-based
# testSettings: 30 μM; 24 hours; untreated cells = 100%
property: Relative cell survival rate (%)

CCCCCCCCCCCCNC(=O)c1c(F)cccc1[N+](=O)[O-]: 87%
CCCCCCCCCCCCNC(=O)c1ccccc1Nc1cccc(C)c1C: 92%
CCCCCCCCCCCCNC(=O)c1cccc2ccccc12: 99%
CCCCCCCCCCCCNC(=O)c1nccc2ccccc12: 107%
CCCCCCCCCCCCNS(=O)(=O)c1c(Cl)cccc1Cl: 96%
CCCCCCCCCCCCNC(=O)c1cccnc1N: 88%
CCCCCCCCCCCCNC(=O)c1cccnc1Br: 92%
CCCCCCCCCCCCNC(=O)c1ccccc1-c1ccc(C)cc1: 71%
CCCCCCCCCCCCNC(=O)c1ccc2cccc(O)c2n1: 109%
CCCCCCCCCCCCNC(=O)c1c(Cl)cccc1Cl: 78%

* * *

# Tested on: T lymphocyte cell line Jurkat E6-1
# procedureSummary: Cytotoxicity experiment (CCK-8, relative cell survival)
# Format: cell-based
# testSettings: 20 μM; 24 hours; untreated cells = 100%
Each entry below lists one item and its recorded Relative cell survival rate (%) value.
property: Relative cell survival rate (%)

O=C(NCCCCCCCCCCCCO)c1ccccc1Br [Compound 83]: 105
CCCCCCCCCCCCNS(=O)(=O)c1c(C)cc(C)cc1C [Compound 41]: 83
CCCCCCCCCCCCNC(=O)c1cccc2ccccc12 [Compound 18]: 101
CCCCCCCCCCCCNC(=O)c1cccnc1O [Compound 70]: 122
CCCCCCCCCCCCNC(=O)c1cccnn1 [Compound 31]: 111
CCCCCCCCCCCCNC(=O)c1ccc2cccc(O)c2n1 [Compound 21]: 106
CCCCCCCCCCCCNC(=O)c1cccnc1C(F)(F)F [Compound 77]: 124
CCCCCCCCCCCCNC(=O)c1ccc(F)c(F)c1F [Compound 55]: 110
CCCCCCCCCNC(=O)/C=C/c1ccccc1Br [Compound 10]: 88
CCCCCC(=O)Nc1ccc(CNC(=O)c2ccccc2Br)cc1 [Compound 47]: 97
CCCCCCCCCCCCNC(=O)c1cccnc1Br [Compound 76]: 95
CCCCCCCCNCCCNC(=O)c1nccnc1Cl [Compound 82]: 90
CCCCCCCCCCCCNC(=O)c1cccnc1Oc1ccc(Cl)cc1 [Compound 26]: 97
O=C(NCCCCCCCCCC1CO1)c1ccccc1Br (stereo not drawn) [Compound 17]: 80
CCCCCC(=O)Nc1ccccc1CNC(=O)c1ccccc1Br [Compound 48]: 99
CCCCCCCCNC(=O)c1cccnc1N [Compound 74]: 84
CCCCCCCCCCCCNC(=O)c1cccnc1 [Compound 19]: 87
CCCCCCCCCCC(CNCc1ccccc1Br)Cc1ccccc1Br (stereo not drawn) [Compound 44]: 98
